- Study System: cyclin D3-Cdk6 (Homo sapiens)
- Construct: made in house; host or cells: Sf9 insect cells, baculovirus co-infection
- Sequence (Q00534 whole entry): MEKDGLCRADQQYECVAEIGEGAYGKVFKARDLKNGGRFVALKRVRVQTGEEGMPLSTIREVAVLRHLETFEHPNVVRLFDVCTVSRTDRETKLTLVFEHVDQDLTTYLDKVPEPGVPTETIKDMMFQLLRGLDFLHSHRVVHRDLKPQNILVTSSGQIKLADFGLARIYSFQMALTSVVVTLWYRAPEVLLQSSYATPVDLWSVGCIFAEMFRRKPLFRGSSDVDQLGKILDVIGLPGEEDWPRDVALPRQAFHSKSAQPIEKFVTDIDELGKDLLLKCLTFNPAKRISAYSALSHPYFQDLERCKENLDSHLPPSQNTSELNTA
- Sequence (P30281 whole entry partner): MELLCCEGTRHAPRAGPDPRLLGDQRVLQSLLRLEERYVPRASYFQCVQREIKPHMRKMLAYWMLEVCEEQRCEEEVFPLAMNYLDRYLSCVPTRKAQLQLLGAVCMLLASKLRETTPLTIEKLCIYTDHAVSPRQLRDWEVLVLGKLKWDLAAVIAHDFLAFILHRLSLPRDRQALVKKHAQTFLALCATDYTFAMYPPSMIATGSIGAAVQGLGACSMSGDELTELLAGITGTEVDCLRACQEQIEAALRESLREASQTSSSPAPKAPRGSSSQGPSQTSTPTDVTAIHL
- Assay Procedure: Enzyme assay of cyclin D3-Cdk6 (33P-ATP phosphorylation of peptide substrate)
- Type: biochemical
- Applied Conditions: 100 μM peptide substrate, 50 μM ATP, 30° C.
- Experimental: • (1) Preparation of cyclin D1-Cdk6 and cyclin D3-Cdk6 As the same method of preparing cyclin D1-Cdk4, cDNA of Cdk6 and its activator cyclin D1 or D3 was recombined with baculovirus-expression vector to make recombinant baculovirus. […] The reaction was carried out using the modified procedure of Kitagawa's method (Oncogene, vol.7, p.1067-1074, 1992). […] The peptide substrate was absorbed to P81 paper and its radioactivity was measured by a liquid scintillation counter. […]
Readout: IC50 (µM)
Report only the number, with the unit µM understood.

GET /values?readout=IC50&item= O=C(Nc1cc(C2CCN(Cc3ccccc3)C2)ccn1)Nc1cccc2c1C1CCCN1C2=O (stereo not shown)
0.013

---

- Tested on: HCT116 cells
- Assay Procedure: Activity of inhibiting cell growth, HCT116 (sulforhodamine B)
- Assay type: cell-based
- Applied Conditions: Homo sapiens, HCT-116, 72 h, cell growth inhibition, 3 days incubation
Readout: IC50 (µM)
Numbers only here, please. The scale is µM.

Which measured IC50 value corresponds to CN1CC[C@H](c2c(O)cc(O)c3c(=O)cc(-c4ccccc4Cl)oc23)[C@H](O)C1 (racemic) [(±)flavopiridol, flavopiridol] ?
0.15
